Assay: Inhibition of full length HCV NS3/4A protease
Set-up: species or system Hepacivirus hominis
Parameter: Ki (nM)

{"Compound": "C=C[C@@H]1C[C@]1(NC(=O)[C@@H]1C[C@@H](Oc2cc(-c3ccccc3)nc3cc(OC)ccc23)C=C1C(=O)N[C@H](C(=O)N[C@H](C(=O)NC)C1CCCCC1)C(C)(C)C)C(=O)O", "Ki [nM]": 1.3}
{"Compound": "CC[C@H](NC(=O)C1CC(Oc2cc(-c3ccccc3)nc3cc(OC)ccc23)C=C1C(=O)N[C@H](C(=O)N[C@H](C(=O)OC)C1CCCCC1)C(C)C)C(=O)O (stereo not given in full)", "Ki [nM]": 523}

[I] CCC[C@H](NC(=O)[C@H]1C[C@H](Oc2cc(-c3ccccc3)nc3cc(OC)ccc23)C=C1C(=O)N[C@H](C(=O)N[C@H](C(=O)OC)C1CCCCC1)C(C)C)C(=O)O
[II] C=C[C@@H]1C[C@]1(NC(=O)C1CC(Oc2cc(-c3ccccc3)nc3cc(OC)ccc23)C=C1C(=O)N[C@H](C(=O)N[C@H](C(=O)OC)C1CCCCC1)C(C)C)C(=O)O (stereo not given in full)
Choose between I and II : whose measured Ki value is numerically larger? Answer format: the label of the selected item.
I

====

Test: Inhibition of full length HCV NS3/4A protease
Set-up: species or system Hepacivirus hominis
Parameter: Ki (nM)

Study these solved cases before continuing.
{"Smiles notation": "C=C[C@@H]1C[C@]1(NC(=O)[C@H]1C[C@H](Oc2cc(-c3ccccc3)nc3cc(OC)ccc23)C=C1C(=O)N[C@H](C(=O)N[C@H](C(=O)NC)C1CCCCC1)C(C)(C)C)C(=O)O", "Ki / nM": 23}
{"Smiles notation": "C=C[C@@H]1C[C@]1(NC(=O)[C@@H]1C[C@@H](Oc2cc(-c3ccccc3)nc3cc(OC)ccc23)C=C1C(=O)N[C@H](C(=O)N[C@H](C(=O)OC)C1CCCCC1)C(C)(C)C)C(=O)O", "Ki / nM": 1.1}

[P] CCC[C@H](NC(=O)[C@@H]1C[C@@H](Oc2cc(-c3ccccc3)nc3cc(OC)ccc23)C=C1C(=O)N[C@H](C(=O)N[C@H](C(=O)OC)C1CCCCC1)C(C)(C)C)C(=O)O
[Q] C=C[C@@H]1C[C@]1(NC(=O)[C@@H]1C[C@@H](Oc2cc(-c3ccccc3)nc3cc(OC)ccc23)C[C@H]1C(=O)N[C@H](C(=O)N[C@H](C(=O)NC)C1CCCCC1)C(C)(C)C)C(=O)O
Please indicate which item has the smaller measured Ki: P versus Q Answer format: the label of the selected item.
Q

====

Assay: Inhibition of full length HCV NS3/4A protease
Parameters: species or system Hepacivirus hominis
pKi: −log10 of the molar value.
Parameter: pKi

{"Molecule": "C=C[C@@H]1C[C@]1(NC(=O)[C@H]1C[C@H](Oc2cc(-c3ccccc3)nc3cc(OC)ccc23)C=C1C(=O)N[C@H](C(=O)N[C@H](C(=O)OC)C1CCCCC1)C(C)(C)C)C(=O)O", "Parameter": "pKi", "Obs value": 6.97}

[a] CCC[C@H](NC(=O)[C@@H]1C[C@@H](Oc2cc(-c3ccccc3)nc3cc(OC)ccc23)C=C1C(=O)N[C@H](C(=O)N[C@H](C(=O)OC)C1CCCCC1)C(C)C)C(=O)O
[b] CC[C@H](NC(=O)C1CC(Oc2cc(-c3ccccc3)nc3cc(OC)ccc23)C=C1C(=O)N[C@H](C(=O)N[C@H](C(=O)NC)C1CCCCC1)C(C)(C)C)C(=O)O (stereo partly drawn)
Choose between a and b : whose measured pKi value is numerically larger? Answer format: the label of the selected item.
a

====

# key: entry, value: Ki
Assay: Inhibition of full length HCV NS3/4A protease
Set-up: species or system Hepacivirus hominis

Study these solved cases before continuing.
{"Compound": "CC[C@H](NC(=O)C1CC(Oc2cc(-c3ccccc3)nc3cc(OC)ccc23)C=C1C(=O)N[C@H](C(=O)N[C@H](C(=O)OC)C1CCCCC1)C(C)(C)C)C(=O)O (stereo partly specified)", "Obs value": "0.503 µM"}
{"Compound": "C=C[C@@H]1C[C@]1(NC(=O)C1CC(Oc2cc(-c3ccccc3)nc3cc(OC)ccc23)C=C1C(=O)N[C@H](C(=O)N[C@H](C(=O)OC)C1CCCCC1)C(C)(C)C)C(=O)OC(C)(C)C (stereo partly specified)", "Obs value": "> 2 µM"}
{"Compound": "CC[C@H](NC(=O)C1CC(Oc2cc(-c3ccccc3)nc3cc(OC)ccc23)C=C1C(=O)N[C@H](C(=O)OC)C(C)C)C(=O)O (stereo partly specified)", "Obs value": "> 2 µM"}
{"Compound": "CC[C@H](NC(=O)[C@@H]1C[C@@H](Oc2cc(-c3ccccc3)nc3cc(OC)ccc23)C=C1C(=O)N[C@@H](C(=O)N[C@@H](C(=O)OC)C1CCCCC1)C(C)C)C(=O)O", "Obs value": "> 2 µM"}
{"Compound": "CCC[C@H](NC(=O)C1CC(Oc2cc(-c3ccccc3)nc3cc(OC)ccc23)C=C1C(=O)N[C@H](C(=O)N[C@H](C(=O)NC)C1CCCCC1)C(C)(C)C)C(=O)O (stereo partly specified)", "Obs value": "0.067 µM"}

Please look up its Ki: C=C[C@@H]1C[C@]1(NC(=O)C1CC(Oc2cc(-c3ccccc3)nc3cc(OC)ccc23)C=C1C(=O)N[C@H](C(=O)N[C@H](C(=O)NC)C1CCCCC1)C(C)(C)C)C(=O)OC(C)(C)C (stereo partly specified)
> 2 µM
